target: D(1A) dopamine receptor (Homo sapiens, UniProt P21728); assay: Binding affinity to dopamine D1 receptor
Sequence (P21728 whole entry): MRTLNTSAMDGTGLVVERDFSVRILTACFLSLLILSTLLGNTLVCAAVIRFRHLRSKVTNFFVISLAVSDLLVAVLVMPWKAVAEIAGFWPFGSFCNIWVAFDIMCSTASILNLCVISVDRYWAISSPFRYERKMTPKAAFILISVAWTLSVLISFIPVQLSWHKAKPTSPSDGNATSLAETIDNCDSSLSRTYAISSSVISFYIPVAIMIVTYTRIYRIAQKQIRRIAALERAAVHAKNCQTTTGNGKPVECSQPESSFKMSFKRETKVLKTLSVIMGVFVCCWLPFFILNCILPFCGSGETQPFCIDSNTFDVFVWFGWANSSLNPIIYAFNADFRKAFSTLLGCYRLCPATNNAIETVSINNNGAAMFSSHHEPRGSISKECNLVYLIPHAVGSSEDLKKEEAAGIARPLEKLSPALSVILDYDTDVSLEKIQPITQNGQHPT
measure: Ki

{"structure": "CN1CCc2cc(Cl)c(O)cc2[C@@H](c2ccc(CNc3ccccc3)cc2)C1", "endpoint result": "2 nM"}
{"structure": "CN1CCc2cc(Cl)c(O)cc2[C@H]2c3cccc(N)c3CC[C@@H]21", "endpoint result": "2.8 nM"}
{"structure": "CN1CCc2cc(Cl)c(O)cc2[C@@H](c2ccc(CN(C)S(=O)(=O)c3ccccc3)cc2)C1", "endpoint result": "0.6 nM"}
{"structure": "CN1CCc2cc(Cl)c(O)cc2[C@@H](c2ccc(CN(Cc3ccccc3)c3ccc(F)cc3F)cc2)C1", "endpoint result": "0.7 nM"}
{"structure": "CN1CCc2cc(Cl)c(O)cc2[C@@H](c2ccc(CN(C)S(C)(=O)=O)cc2)C1", "endpoint result": "0.5 nM"}
{"structure": "CN1CCc2cc(Cl)c(O)cc2[C@H]2c3cccc(NC(=O)Nc4c(Cl)cccc4Cl)c3CC[C@@H]21", "endpoint result": "7.1 nM"}
{"structure": "CN1CCc2cc(Cl)c(O)cc2[C@H]2c3ccc(NC(=O)Nc4c(Cl)cccc4Cl)cc3CC[C@@H]21", "endpoint result": "0.7 nM"}
{"structure": "CN1CCc2cc(Cl)c(O)cc2[C@H]2c3cccc(NC(=O)C4CC4)c3CC[C@@H]21", "endpoint result": "5.7 nM"}
{"structure": "CCS(=O)(=O)Nc1ccc2c(c1)CC[C@H]1[C@H]2c2cc(O)c(Cl)cc2CCN1C", "endpoint result": "0.7 nM"}
{"structure": "CCNC(=O)Nc1ccc2c(c1)CC[C@H]1[C@H]2c2cc(O)c(Cl)cc2CCN1C", "endpoint result": "1.5 nM"}
{"structure": "CN1CCc2cc(Cl)c(O)cc2[C@H]2c3cc(CN4CCN(c5ccccn5)CC4)ccc3CC[C@@H]21", "endpoint result": "152 nM"}
{"structure": "CCC(=O)Nc1cccc2c1CC[C@H]1[C@H]2c2cc(O)c(Cl)cc2CCN1C", "endpoint result": "2.3 nM"}
{"structure": "CCOC(=O)Nc1ccc2c(c1)CC[C@H]1[C@H]2c2cc(O)c(Cl)cc2CCN1C", "endpoint result": "1.4 nM"}

Reference source: ChEMBL document CHEMBL1156835
